test system: Sprague-Dawley rats; type: in vivo; details: tail vein
I'd appreciate it if you could supply Minimal lethal dose values for the items below.

Below, each entry is followed by its recorded Minimal lethal dose result.
| Molecule | Measured Target | Minimal lethal dose |
| --- | --- | --- |
| CCOC(OCC)(OCC)C(=O)c1cncn1[C@H](C)c1ccccc1 [Compound D76] | Sprague-Dawley rats | >11.5 mg/kg |
| CCOC(OC)(OC)C(=O)c1cncn1[C@H](C)c1ccccc1 [Compound D78] | Sprague-Dawley rats | >6.8 mg/kg |
| COC(OC)C(=O)c1cncn1[C@H](C)c1ccccc1 [Compound D87] | Sprague-Dawley rats | >13.2 mg/kg |
| CC(C)CCOC(=O)C(=O)c1cncn1[C@H](C)c1ccccc1 [Compound D82] | Sprague-Dawley rats | >7.8 mg/kg |

Now for another entry.
Measured Minimal lethal dose for this entry COC(=O)C(=O)c1cncn1[C@H](C)c1ccccc1 [Compound D80] on Sprague-Dawley rats: >12.2 mg/kg
